Here, each record is paired with measured TGI data.
# System: MCF7 breast
# Method: NCI tumour cell line growth inhibition, 48 h
Value kind: TGI

INSERT INTO measurements (compound, measurement) VALUES
  ('CCCCCCCNc1nc(C(=O)OCC)ncc1-c1ccc(C(F)(F)F)cc1', '> 100 µM'),
  ('O=Nc1c(-c2c(O)[nH]c3ccc([N+](=O)[O-])cc23)[nH]c2ccc(O)cc12', '> 100 µM'),
  ('COc1ccc(/C=c2\[nH]c3nc(=O)c(N4CCOCC4)c(N)n3c2=O)cc1', '> 100 µM'),
  ('O=C1CCC2(CCO1)OCCO2', '> 100 µM'),
  ('CCCCS(=O)CCC(N)C(=O)O (centres undefined)', '> 100 µM'),
  ('FC(F)(F)c1cc(-c2nnc3n2N=C(N2CCCC2)CS3)cc(C(F)(F)F)c1', '> 50 µM'),
  ('CN(C)/N=C/c1cn(C)c(=O)n(C)c1=O', '> 100 µM'),
  ('C[C@H](NC(=O)[C@@H]1CSSC[C@@H](NC(=O)c2nc3ccccc3cc2O)C(=O)NCC(=O)N1C)c1ccccc1', '2.47 µM'),
  ('O=[N+]([O-])c1ccc2nc(-c3ccccn3)c(-c3ccccn3)nc2c1', '> 100 µM'),
  ('N/N=C1/C2CN3CCN(C2)CC1(c1ccc([N+](=O)[O-])cc1)C3', '> 100 µM'),
  ('Cc1ccc(C(=O)O)c(CC2Cc3c(C)cccc3C2=O)c1 (centres undefined)', '> 100 µM'),
  ('CCOC(=O)C1=C(c2ccccc2)N(C)c2ccccc2S1', '78.8 µM'),
  ('COc1ccc(N2Cc3cnc(Nc4ccccc4)nc3N([C@@H]3CC[C@@H](O)C3)C2=O)cc1', '> 25 µM'),
  ('COc1ccc2c(c1)/C(=C\c1cccnc1)C(=O)N2', '53.4 µM'),
  ('CC(CN(C)C)Nc1c2ccccc2nc2cccc([N+](=O)[O-])c12 (centres undefined)', '0.636 µM'),
  ('COc1ccc(N(C)C(=O)N(C)c2ccc([N+](=O)[O-])cc2)cc1', '> 100 µM'),
  ('c1ccc(CCNCc2ccco2)nc1', '> 100 µM'),
  ('CC1(C)OCC(C(O)C2OC(C)(C)OC2C=O)O1 (centres undefined)', '> 100 µM'),
  ('COc1cc2nc(-c3ccc4ccccc4c3)[nH]c(=O)c2cc1OC', '> 100 µM'),
  ('C/C(=N\O)c1cccc(Nc2cc(-n3ccnn3)c3ccccc3n2)c1', '> 100 µM'),
  ('Cc1ccc(/C(=N\N=C(N)N)c2ccccc2)cc1', '10.2 µM'),
  ('CN(C)CCNC(=O)c1ccc(NCCCN(C)CCCNc2ccc3c(=O)n(CCN(C)C)c(=O)n4c5ccccc5c(=O)c2c34)c2c(=O)c3ccccc3[nH]c12', '0.344 µM'),
  ('CC(C)CNCC(O)COc1ccc(C(C)(C)c2ccc(OCC(O)CNCC(C)C)cc2)cc1 (centres undefined)', '3.48 µM'),
  ('O=CC(O)C(O)C(O)C(O)C(=O)NCCCCCCCCCCCCNC(=O)C(O)C(O)C(O)C(O)C=O (centres undefined)', '> 100 µM'),
  ('COc1cc(/C=C/C(=O)c2c(=O)o[nH][n+]2-c2ccccc2)ccc1[O-]', '13.8 µM'),
  ('COc1nc2c(c(=O)n1C)N[C@H]1[C@H](OC(C)=O)[C@@H](OC(C)=O)CO[C@H]1N2', '> 100 µM'),
  ('CC(=O)O[C@@H]1C[C@@]23C[C@@]24CC[C@H](OC2OCC(O)C(O)C2O)C(C)(C)[C@@H]4CC=C3[C@]2(C)C[C@@H]3OC4(C[C@@H](C)[C@@H]3[C@@]12C)OC(O)[C@@]1(C)O[C@@H]41 (some centres undefined)', '> 100 µM'),
  ('CCc1c(Cc2cccc3ccccc23)n2c(nc1=O)SCC2OCCO (centres undefined)', '> 100 µM'),
  ('CCCc1c(CC)c(=N)c2ccccc2n1C', '> 100 µM'),
  ('CC(C)=CCC[C@@H](C)C1=C(Nc2ccccc2Cl)C(O)=C(C)C(=O)C1=O', '> 100 µM'),
  ('Nc1ncnc2c1ncn2C1CCC(COS(N)(=O)=O)C1 (centres undefined)', '> 100 µM'),
  ('O=C(CCN1CCCC1)Nc1ccc2sc3ccccc3c(=O)c2n1', '21.3 µM'),
  ('CC1(C)CC[C@H](Nc2ncc(C(F)(F)F)c(-c3c[nH]c4c(P(C)(C)=O)c(C#N)ccc34)n2)CN1', '10.2 µM'),
  ('O=C(c1ccc2ccccc2c1)c1c(C(F)(F)F)n([O-])c2cc(F)c(F)cc2[n+]1=O', '> 100 µM'),
  ('COc1ccccc1/C=C/[N+](=O)[O-]', '7.99 µM'),
  ('N=C1N(S(=O)(=O)c2ccccc2)[C@@H](Cc2ccccc2)[C@H](c2ccccc2)C1(c1ccccc1)c1ccccc1', '> 100 µM'),
  ('CCOC(=O)C(=[N+]=[N-])C(=O)Nc1nn2nnnc2c2ccccc12', '> 100 µM'),
  ('CCCCc1cc2c(C)cc(=O)oc2c(O)c1O', '45.7 µM'),
  ('Cc1ccc(S(=O)(=O)NCCNC2=CC(=O)c3nc4ccccc4c4ccnc2c34)cc1', '32.7 µM');

----------
Known TGI of a selection of compounds
# Test system: CAKI-1 renal
# Method: NCI tumour cell line growth inhibition, 48 h
Value kind: TGI

INSERT INTO results (compound, measurement) VALUES
  ('N=C1N(S(=O)(=O)c2ccccc2)[C@@H](Cc2ccccc2)[C@H](c2ccccc2)C1(c1ccccc1)c1ccccc1', '> 100 µM'),
  ('CCCCCCCCCCCCCCN', '> 100 µM'),
  ('O=C(c1ccc2ccccc2c1)c1c(C(F)(F)F)n([O-])c2cc(F)c(F)cc2[n+]1=O', '3.97 µM'),
  ('CCOC(=O)C1=C(C(=O)c2ccc(C)cc2)C(c2cccc([N+](=O)[O-])c2)C(C(=O)c2ccc(C)cc2)=C(C(=O)OCC)N1', '43.5 µM'),
  ('CCOC(=O)C(=[N+]=[N-])C(=O)Nc1nn2nnnc2c2ccccc12', '> 100 µM'),
  ('Cn1nc(-c2ccccc2)c(C(=O)/C=C/c2ccc(F)cc2)c(N2CCCCC2)c1=O', '27.3 µM'),
  ('O=[N+]([O-])c1ccc(S[C@@H]2[C@H]3c4c(-c5ccccc5)[nH]c(-c5ccccc5)c4[C@@H]2C[C@H]3Cl)cc1', '> 100 µM'),
  ('Cc1c(S(C)(=O)=O)c(-c2cc(F)cc(N3CCN(c4ccc(NS(=O)(=O)c5ccc(N[C@H](CCN6CCC(C(=O)OCCCP(=O)(O)O)CC6)CSc6ccccc6)c(S(=O)(=O)C(F)(F)F)c5)cc4)CC3)c2)c(-c2ccc(Cl)cc2)n1C(C)C', '> 100 µM'),
  ('CC1CC2CC(=O)CC3(C1)C2CCCN3CCCO (centres undefined)', '> 100 µM'),
  ('Cc1ccc(/C(=N\N=C(N)N)c2ccccc2)cc1', '20.1 µM'),
  ('CCNc1ccc2c(c1)Cc1ccccc1-2', '> 100 µM'),
  ('CCCn1c(SC)nc(COC(=O)NC)c1COC(=O)NC', '> 100 µM'),
  ('O=[N+]([O-])c1c(Br)cc(Br)c2c1Nc1c(ccc(Cl)c1Cl)S2', '33.6 µM'),
  ('C1C[OH+]CC[OH+]CCNCC[OH+]CC[OH+]CCN1.[Cl-].[Pt+4]', '> 100 µM');

----------
# Test system: HL-60(TB) leukemia
# Method: NCI tumour cell line growth inhibition, 48 h
Value kind: GI50

INSERT INTO results (smiles_record, measured_target, value_kind, measurement) VALUES
  ('C[C@H](NC(=O)[C@@H]1CSSC[C@@H](NC(=O)c2nc3ccccc3cc2O)C(=O)NCC(=O)N1C)c1ccccc1', 'HL-60(TB) leukemia', 'GI50', '1.2 µM'),
  ('COc1ccc(Nc2ncc(Br)c(NCCCNC(=O)C3CCC3)n2)cc1', 'HL-60(TB) leukemia', 'GI50', '5.59 µM'),
  ('O=C1C(c2c[nH]c3ccccc23)=C(c2c[nH]c3ccccc23)C(=O)N1O', 'HL-60(TB) leukemia', 'GI50', '> 25 µM'),
  ('CCCCCCCNc1nc(C(=O)OCC)ncc1-c1ccc(C(F)(F)F)cc1', 'HL-60(TB) leukemia', 'GI50', '30.4 µM'),
  ('C=C1SC(=Nc2c(C)cc(C)cc2C)N(C(=O)c2sc3ccccc3c2Cl)C12CCCCC2', 'HL-60(TB) leukemia', 'GI50', '16.5 µM');
